Readings of IC50, RGA for the listed binders
- measured_target: T1, murine IL-11 (mouse, UniProt P47873 22-199)
- T1 sequence: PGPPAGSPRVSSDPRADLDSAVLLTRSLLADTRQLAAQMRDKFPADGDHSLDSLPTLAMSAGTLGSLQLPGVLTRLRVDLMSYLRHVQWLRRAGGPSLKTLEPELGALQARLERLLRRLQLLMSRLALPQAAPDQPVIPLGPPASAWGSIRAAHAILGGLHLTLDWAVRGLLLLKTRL
- protocol: cell-based or functional assay
readout: IC50, RGA (nM)

binder="TPP-21158 (antibody, V domains shown) VH: EVQLLESGGGLVQPGGSLRLSCAASGFTFSSYGMHWVRQAPGKGLEWVAVISYDGSYKYYADSVKGRFTISRDNSKNTLYLQMNSLRAEDTAVYYCARGVPDYWGQGTLVTVSS VL: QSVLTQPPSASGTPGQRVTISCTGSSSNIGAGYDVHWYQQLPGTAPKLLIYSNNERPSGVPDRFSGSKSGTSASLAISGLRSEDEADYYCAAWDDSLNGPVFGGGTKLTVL" readout="IC50, RGA" unit_tag=nM endpoint_value=2.4
binder="TPP-27154 (antibody, V domains shown) VH: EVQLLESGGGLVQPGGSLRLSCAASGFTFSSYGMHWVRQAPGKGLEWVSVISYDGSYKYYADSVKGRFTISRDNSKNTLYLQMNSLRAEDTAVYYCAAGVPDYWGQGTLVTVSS VL: QSVLTQPPSASGTPGQRVTISCTGSSSNIGAGYDVHWYQQLPGTAPKLLIYSNNERPSGVPDRFSGSKSGTSASLAISGLRSEDEADYYCAAWDDSLSGPVFGGGTKLTVL" readout="IC50, RGA" unit_tag=nM endpoint_value=1.8
binder="TPP-27157 (antibody, V domains shown) VH: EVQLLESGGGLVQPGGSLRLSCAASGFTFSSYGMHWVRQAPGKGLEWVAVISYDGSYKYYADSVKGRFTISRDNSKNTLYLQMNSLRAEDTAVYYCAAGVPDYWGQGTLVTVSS VL: QSVLTQPPSASGTPGQRVTISCTGSSSNIGAGYDVHWYQQLPGTAPKLLIYSNNERPSGVPDRFSGSKSGTSASLAISGLRSEDEADYYCAAWDDSLSGPVFGGGTKLTVL" readout="IC50, RGA" unit_tag=nM endpoint_value=1.4
binder="TPP-27156 (antibody, V domains shown) VH: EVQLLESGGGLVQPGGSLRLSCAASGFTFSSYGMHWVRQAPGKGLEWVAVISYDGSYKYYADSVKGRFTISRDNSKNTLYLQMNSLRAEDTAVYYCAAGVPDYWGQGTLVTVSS VL: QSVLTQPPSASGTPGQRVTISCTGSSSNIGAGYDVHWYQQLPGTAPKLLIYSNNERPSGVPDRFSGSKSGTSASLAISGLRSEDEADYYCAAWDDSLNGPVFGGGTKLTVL" readout="IC50, RGA" unit_tag=nM endpoint_value=1.2
